Multi-source literature compilation: pIC50 on EED-EZH2 (Homo sapiens (Human), UniProt O75530).
Entry type: numeric. Quantity: pIC50, the -log10 of concentration in molar units.

>  <Chemical Smiles>
Cc1ncccc1-c1cnc(NCc2c(F)ccc3c2CCO3)n2cnc(CO)c12

>  <Result Type>
pIC50

>  <Quantitative Readout>
7.94

$$$$

## Task Which measured pIC50 belongs to O=C(CN1CCOCC1)N1CC=C(c2cnc(NCc3ccco3)n3cnnc23)CC1 , tested on EED-EZH2 (Homo sapiens (Human), UniProt O75530)?
## Result 6.27

## Task What reported pIC50 corresponds to c1ccc(-c2cnc(NCc3cccc4c3CCO4)n3cnnc23)cc1 on EED-EZH2 (Homo sapiens (Human), UniProt O75530)?
## Result 7.27

## Task Test system EED-EZH2 (Homo sapiens (Human), UniProt O75530); read-out pIC50; what value for CN(C)CCN(C)C(=O)c1ccc(-c2cnc(NCc3cccc4c3CCO4)n3cnnc23)cn1 ?
## Result 7.47

## Task # query: pIC50 | item [O-][n+]1cccc(-c2cnc(NCc3c(F)ccc4c3CCO4)n3cnnc23)c1 | system: EED-EZH2 (Homo sapiens (Human), UniProt O75530)
## Result 8.14

## Task Checklist item: pIC50 tested on EED-EZH2 (Homo sapiens (Human), UniProt O75530), entry Cc1ncc(-c2cnc(NCc3c(F)ccc4c3CCO4)n3cnc(S(=O)(=O)c4ccccc4)c23)c(C)n1 , value?
## Result 7.82
